System: A. viscosus biofilm
Method description: Bioenhancement assay: BEC50 of antimicrobial agents with or without bisabolol, crystal violet, 24 h (Examples 4 and 5)
Format: cell-based
Measurement context: first Table 3, said to be raw data of FIG. 4b, absence of bisabolol
Some molecules, each annotated with its measured BEC(50) alone.

{"Molecule": "C=CCc1ccc(O)c(-c2ccc(O)c(CC=C)c2)c1", "Study target": "A. viscosus biofilm", "Observed measurement": 5.41}
{"Molecule": "O=C([O-])CC(O)(CC(=O)[O-])C(=O)[O-].O=C([O-])CC(O)(CC(=O)[O-])C(=O)[O-].[Zn+2].[Zn+2].[Zn+2] [zinc citrate]", "Study target": "A. viscosus biofilm", "Observed measurement": 52.08}
{"Molecule": "[F][Sn][F] [stannous flouride, stannous fluoride]", "Study target": "A. viscosus biofilm", "Observed measurement": 0}

## Input Test system A. viscosus biofilm; read-out BEC(50) alone; what value for "C=CCc1ccc(O)c(-c2cc(CC=C)ccc2O)c1" ?
## Output 1.07

## Input Recall the recorded BEC(50) alone for [Cl][Sn][Cl] [stannous chloride] with A. viscosus biofilm and state it.
## Output 45.11
